Target: protein-protein interaction between Kras and SOS1 (biotin-tagged human Kras loaded with GDP, His-tagged human SOS1) (Homo sapiens (Human), UniProt P01116, G12D)
Test: Protein-protein interaction inhibition between Kras and SOS1 (KrasG12D-SOS PPI) using AlphaScreen
Format: biochemical
Details: AlphaScreen; biotin-tagged human Kras loaded with GDP, His-tagged human SOS1; read-out: KRAS G12D-SOS PPI IC50
Bridge positions count the residues as written; N and C are the ends. Square brackets hold non-standard residues; d marks the D form. Peptide text beside a SMILES is read from it. * marks the point of attachment. hPhe(3-Cl-4-CF3) = N[C@@H](CCc1ccc(C(F)(F)F)c(Cl)c1)C(=O)O; NMePhe(4-CF3) = CN[C@@H](Cc1ccc(C(F)(F)F)cc1)C(=O)O; NMeI = CC[C@H](C)[C@H](NC)C(=O)O; NMeD = CN[C@@H](CC(=O)O)C(=O)O; NMeL = CN[C@@H](CC(C)C)C(=O)O; Morpholide = C1CN(*)CCO1; NMeA = CN[C@@H](C)C(=O)O; Ac5c = NC1(C(=O)O)CCCC1; Aze = O=C(O)[C@@H]1CCN1; Sar = CNCC(=O)O
reported-metric: IC50 (pM)
Form entry: value (pM) — number only.

Q: Consider the compound CC[C@H](C)[C@@H]1NC(=O)[C@H](CC(C)C)N(C)C(=O)C[C@@H](C(=O)N2CCOCC2)N(C)C(=O)[C@H]([C@@H](C)CC)N(C)C(=O)C2(CCCC2)NC(=O)[C@@H]2CCCN2C(=O)[C@H](CCc2ccc(C(F)(F)F)c(Cl)c2)NC(=O)CN(C)C(=O)[C@H](Cc2ccc(C(F)(F)F)cc2)N(C)C(=O)[C@@H]2CCN2C(=O)[C@H](C)N(C)C1=O [Compound 276] ([NMeL]I[NMeA][Aze][NMePhe(4-CF3)][Sar][hPhe(3-Cl-4-CF3)]P[Ac5c][NMeI][NMeD]-Morpholide; lactam N-11) . State its measured IC50.
Result: 760

====

Target: protein-protein interaction between Kras and SOS1 (biotin-tagged human Kras loaded with GDP, His-tagged human SOS1) (Homo sapiens (Human), UniProt P01116, G12D)
Test: Protein-protein interaction inhibition between Kras and SOS1 (KrasG12D-SOS PPI) using AlphaScreen
Format: biochemical
Settings: AlphaScreen; biotin-tagged human Kras loaded with GDP, His-tagged human SOS1; read-out: KRAS G12D-SOS PPI IC50
Numbered stars: 1 amine (or outer) side, 2 acyl side, 3 side chain; on linkers, the order of the positions; unused ones are H or OH. Bridge positions count the residues as written; N and C are the ends. Square brackets hold non-standard residues; d marks the D form. Peptide text beside a SMILES is read from it. * marks the point of attachment. hPhe(3-Cl-4-CF3) = N[C@@H](CCc1ccc(C(F)(F)F)c(Cl)c1)C(=O)O; hPhe(3-F,4-CF3) = N[C@@H](CCc1ccc(C(F)(F)F)c(F)c1)C(=O)O; NMePhe(4-CF3) = CN[C@@H](Cc1ccc(C(F)(F)F)cc1)C(=O)O; hPhe(4-CF3) = N[C@@H](CCc1ccc(C(F)(F)F)cc1)C(=O)O; NMePhe(4-Cl) = CN[C@@H](Cc1ccc(Cl)cc1)C(=O)O; NMedβ3hAla = C[C@H](CC(=O)[*:2])N(C)[*:1]; NMeAla(cPent) = CN[C@@H](CC1CCCC1)C(=O)O; NMeCha = CN[C@@H](CC1CCCCC1)C(=O)O; NMeF = CN[C@@H](Cc1ccccc1)C(=O)O; NMeI = CC[C@H](C)[C@H](NC)C(=O)O; NMeβAla = CN(CCC(=O)[*:2])[*:1]; NMeD = CN[C@@H](CC(=O)O)C(=O)O; NMeL = CN[C@@H](CC(C)C)C(=O)O; NMeV = CN[C@H](C(=O)O)C(C)C; d(β3hA) = C[C@@H](N)CC(=O)O; Morpholide = C1CN(*)CCO1; NMeA = CN[C@@H](C)C(=O)O; NMeAib = CNC(C)(C)C(=O)O; Ac5c = NC1(C(=O)O)CCCC1; Aze = O=C(O)[C@@H]1CCN1; Sar = CNCC(=O)O
With a cut-off of 100 nM, any IC50 strictly below it is called condition met; any IC50 meeting it or above is called condition not met.

Q: Problem: For the compound CC[C@H](C)[C@@H]1NC(=O)[C@H](CC(C)C)N(C)C(=O)C[C@@H](C(=O)N(C)C)NC(=O)[C@H]([C@@H](C)CC)N(C)C(=O)C2(CCCC2)NC(=O)[C@@H]2CCCN2C(=O)[C@H](CCc2ccc(C(F)(F)F)c(Cl)c2)NC(=O)CN(C)C(=O)[C@H](CC2CCCCC2)N(C)C(=O)[C@@H]2CCN2C(=O)[C@H](C)N(C)C1=O [Compound 568] ([NMeL]I[NMeA][Aze][NMeCha][Sar][hPhe(3-Cl-4-CF3)]P[Ac5c][NMeI]D-NMe2; lactam N-11) , is IC50 under 100 nM?
Result: condition met

Q: Problem: For the compound CC[C@H](C)[C@@H]1NC(=O)[C@H](CC(C)C)N(C)C(=O)C[C@@H](C)NC(=O)[C@H](C(C)C)N(C)C(=O)C2(CCCC2)NC(=O)[C@@H]2CCCN2C(=O)[C@H](CCc2ccc(C(F)(F)F)c(Cl)c2)NC(=O)CN(C)C(=O)[C@H](CC2CCCCC2)N(C)C(=O)[C@@H]2CCN2C(=O)[C@H](CC(C)C)N(C)C1=O [Compound 1619] (cyclo([Ac5c][NMeV][d(β3hA)][NMeL]I[NMeL][Aze][NMeCha][Sar][hPhe(3-Cl-4-CF3)]P)) , is IC50 under 100 nM?
Result: condition not met

Q: Problem: For the compound CC[C@H](C)[C@@H]1NC(=O)[C@H](CC(C)C)N(C)C(=O)CCN(C)C(=O)[C@H](CC(C)C)NC(=O)C(C)(C)N(C)C(=O)[C@H](CC(C)C)NC(=O)[C@H](CCc2ccc(C(F)(F)F)c(F)c2)NC(=O)CN(C)C(=O)[C@H](CC2CCCCC2)N(C)C(=O)CN(C)C(=O)CN(C)C1=O [Compound 832] (cyclo(I[Sar][Sar][NMeCha][Sar][hPhe(3-F,4-CF3)]L[NMeAib]L[NMeβAla][NMeL])) , is IC50 under 100 nM?
Result: condition not met

Q: Problem: For the compound CC[C@H](C)[C@@H]1NC(=O)[C@H](C)NC(=O)C[C@@H](C)N(C)C(=O)[C@H](CC(C)C)N(C)C(=O)[C@H](Cc2ccccc2)N(C)C(=O)[C@H](CC(C)C)NC(=O)[C@H](CCc2ccc(C(F)(F)F)cc2)NC(=O)CN(C)C(=O)[C@H](Cc2ccc(Cl)cc2)N(C)C(=O)CN(C)C(=O)CN(C)C1=O [Compound 406] (cyclo(AI[Sar][Sar][NMePhe(4-Cl)][Sar][hPhe(4-CF3)]L[NMeF][NMeL][NMedβ3hAla])) , is IC50 under 100 nM?
Result: condition not met

Q: Problem: For the compound CC[C@H](C)[C@@H]1NC(=O)[C@H](CC2CCCC2)N(C)C(=O)C[C@@H](C(=O)N2CCOCC2)N(C)C(=O)[C@H]([C@@H](C)CC)N(C)C(=O)C2(CCCC2)NC(=O)[C@@H]2CCCN2C(=O)[C@H](CCc2ccc(C(F)(F)F)c(Cl)c2)NC(=O)CN(C)C(=O)[C@H](Cc2ccc(C(F)(F)F)cc2)N(C)C(=O)[C@@H]2CCN2C(=O)[C@H](C)NC1=O [Compound 1371] ([NMeAla(cPent)]IA[Aze][NMePhe(4-CF3)][Sar][hPhe(3-Cl-4-CF3)]P[Ac5c][NMeI][NMeD]-Morpholide; lactam N-11) , is IC50 under 100 nM?
Result: condition met

====

Molecular target: protein-protein interaction between Kras and SOS1 (biotin-tagged human Kras loaded with GDP, His-tagged human SOS1) (Homo sapiens (Human), UniProt P01116, G12D)
Assay: Protein-protein interaction inhibition between Kras and SOS1 (KrasG12D-SOS PPI) using AlphaScreen;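 also: kras produced in E. coli, Ni-coupled donor beads and streptavidin acceptor beads, excitation 680 nm with emission detected at 520–620 nm via singlet oxygen transfer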
Assay type: biochemical
Settings: AlphaScreen; biotin-tagged human Kras loaded with GDP, His-tagged human SOS1; read-out: KRAS G12D-SOS PPI IC50
Bridge positions count the residues as written; N and C are the ends. Square brackets hold non-standard residues; d marks the D form. Peptide text beside a SMILES is read from it. * marks the point of attachment. hPhe(3-Cl-4-CF3) = N[C@@H](CCc1ccc(C(F)(F)F)c(Cl)c1)C(=O)O; hPhe(3-F,4-CF3) = N[C@@H](CCc1ccc(C(F)(F)F)c(F)c1)C(=O)O; NMePhe(4-CF3) = CN[C@@H](Cc1ccc(C(F)(F)F)cc1)C(=O)O; NMeCha = CN[C@@H](CC1CCCCC1)C(=O)O; NMeI = CC[C@H](C)[C@H](NC)C(=O)O; NMeD = CN[C@@H](CC(=O)O)C(=O)O; NMeL = CN[C@@H](CC(C)C)C(=O)O; NMeV = CN[C@H](C(=O)O)C(C)C; NMeA = CN[C@@H](C)C(=O)O; Piperidide = C1CCN(*)CC1; Pyrrolidide = C1CCN(*)C1; Ac5c = NC1(C(=O)O)CCCC1; Aze = O=C(O)[C@@H]1CCN1; Sar = CNCC(=O)O
Can you tell me pIC50 for the items I'm about to list?
pIC50 is defined as minus the log10 of a concentration measured in mol/L.

Q: Consider the molecule CC[C@H](C)[C@@H]1NC(=O)[C@H](CC(C)C)N(C)C(=O)C[C@@H](C(=O)N2CCCC2)N(C)C(=O)[C@H]([C@@H](C)CC)N(C)C(=O)C2(CCCC2)NC(=O)[C@@H]2CCCN2C(=O)[C@H](CCc2ccc(C(F)(F)F)c(Cl)c2)NC(=O)CN(C)C(=O)[C@H](Cc2ccc(C(F)(F)F)cc2)N(C)C(=O)[C@@H]2CCN2C(=O)[C@H](C)N(C)C1=O [Compound 882] ([NMeL]I[NMeA][Aze][NMePhe(4-CF3)][Sar][hPhe(3-Cl-4-CF3)]P[Ac5c][NMeI][NMeD]-Pyrrolidide; lactam N-11) . State its measured pIC50.
Result: 9.33

Q: Consider the molecule CC[C@H](C)[C@@H]1NC(=O)[C@H](CC(C)C)N(C)C(=O)C[C@@H](C(=O)N2CCCCC2)N(C)C(=O)[C@H](C(C)C)N(C)C(=O)C2(CCCC2)NC(=O)[C@@H]2CCCN2C(=O)[C@H](CCc2ccc(C(F)(F)F)c(F)c2)NC(=O)CN(C)C(=O)[C@H](CC2CCCCC2)N(C)C(=O)[C@@H]2CCN2C(=O)CN(C)C1=O [Compound 599] ([NMeL]I[Sar][Aze][NMeCha][Sar][hPhe(3-F,4-CF3)]P[Ac5c][NMeV][NMeD]-Piperidide; lactam N-11) . State its measured pIC50.
Result: 7.92
